# system: PcrV of P. aeruginosa strain PA103 (on TTSS-induced bacteria) (Pseudomonas aeruginosa strain PA103)
# procedure summary: cell-based or functional assay
Listed below: % inhibition in P3X63 cytotoxicity assay, extract 1/150 values for each entry.
Could you give me the number in %? Just the number is fine.

Nanobody 269 (6B05-40GS-13F07) (VHH) EVQLVESGGGLVQPGGSLRLSCAASGSIFSINTMGWYRQAPGKQRELVSTITSNLVPHYADSVQGRFTISRDNARNTVYLQMNSLKPQDTAHYYCNAWARSSGATPYTNYWGQGTLVTVSSGGGGSGGGGSGGGGSGGGGSGGGGSGGGGSGGGGSGGGGSEVQLVESGGGLVQAGGSLRLSCAASGNTFSTNPMYWYRQAEGKQRELVASISSRGITNYADSVRGRFSISRDNTKDTVYLQMNSLKPEDTAVYYCRLASLSSGTVYWGKGTLVTVSS	41

query: Provide one value: measured % inhibition in P3X63 cytotoxicity assay, extract 1/150 of 1E11-40GS-14B10 (VHH) EVQLVESGGGLVQPGGSLRLSCAASGSTRSVNPMAWFRQAPGRQREWVATISRSGYATYADSVKGRFTISGDNAKSSVYLQMNSLKPEDTAVYYCVTGTYWGQGTLVTVSSGGGGSGGGGSGGGGSGGGGSGGGGSGGGGSGGGGSGGGGSEVQLVESGGGLVQPGGSLRLSCAASGRIFSINNMGWYHQAPGKQRELVATITMNGITTYADSVKGRFTISRDNAKNTVYLQMNSLKPEDTAVYYCSCWVRSSGGDPYRDYWGQGTQVTVSS
result: 52

Source listed as patent US20190055322A1.
